Ref: paper PMC12719470

Molecular target: T1, TNFR2-His protein (Homo sapiens, UniProt P20333)
T1 construct: Tumor necrosis factor receptor 2 (TNFR2), human; The BLI methods say only 'TNFR2-His protein'; It may be the E. coli ectodomain (residues 33-205, purified on a nickel column) or a bought protein (Sino Biological 10417-H03H); neither the source nor the species is named for this experiment; also called histidine-tagged TNFR2
T1 sequence (P20333 23-461): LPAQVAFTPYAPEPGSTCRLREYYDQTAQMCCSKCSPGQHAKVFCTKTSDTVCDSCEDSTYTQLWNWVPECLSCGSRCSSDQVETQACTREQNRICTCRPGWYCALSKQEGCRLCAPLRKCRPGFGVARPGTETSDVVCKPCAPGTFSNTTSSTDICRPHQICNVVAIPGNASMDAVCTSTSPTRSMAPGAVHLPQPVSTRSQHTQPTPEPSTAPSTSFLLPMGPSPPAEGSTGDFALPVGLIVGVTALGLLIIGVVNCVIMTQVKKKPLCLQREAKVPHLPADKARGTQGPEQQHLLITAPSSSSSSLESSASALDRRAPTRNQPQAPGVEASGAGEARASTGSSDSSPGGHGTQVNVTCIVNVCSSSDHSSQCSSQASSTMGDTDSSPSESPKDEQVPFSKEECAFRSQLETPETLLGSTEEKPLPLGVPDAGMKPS
Experiment: BLI; 30 nM Nanobody-161 IgG1 or mutant immobilised on Protein A biosensors (Gator); 4800 nM-300 nM TNFR2-His in Q Buffer (PBS, 0.02% Tween 20, 0.2% BSA); 25 °C; association 120 s, dissociation 180 s; global 1:1 Langmuir fit
Conditions: both partners purified
Kindly supply the reported Kd values for the records listed here.
Numbers only, in µM.

Nanobody-161 IgG1 R29A (VHH, as the VHH of Wm1, with the stated change) VHH: EVQLVESGGGLVQPGGSLRLSCAASGSIAFINDMGWYRQAPGKGLELVAAIGRGGGSTNYADSVKGRFTISRDNAKNTLYLQMNSLRAEDTAVYYCHAEISQLGYAFRDYWGQGTLVTVSS; 0.631
Nanobody-161 IgG1 F30G (VHH, as the VHH of Wm1, with the stated change) VHH: EVQLVESGGGLVQPGGSLRLSCAASGSIRGINDMGWYRQAPGKGLELVAAIGRGGGSTNYADSVKGRFTISRDNAKNTLYLQMNSLRAEDTAVYYCHAEISQLGYAFRDYWGQGTLVTVSS; 3.78
Nanobody-161 IgG1 Q102A (VHH, as the VHH of Wm1, with the stated change) VHH: EVQLVESGGGLVQPGGSLRLSCAASGSIRFINDMGWYRQAPGKGLELVAAIGRGGGSTNYADSVKGRFTISRDNAKNTLYLQMNSLRAEDTAVYYCHAEISALGYAFRDYWGQGTLVTVSS; 0.212
Nanobody-161 IgG1 R53A (VHH, as the VHH of Wm1, with the stated change) VHH: EVQLVESGGGLVQPGGSLRLSCAASGSIRFINDMGWYRQAPGKGLELVAAIGAGGGSTNYADSVKGRFTISRDNAKNTLYLQMNSLRAEDTAVYYCHAEISQLGYAFRDYWGQGTLVTVSS; 0.0795
Nanobody-161 IgG1 (VHH, also called WT; source: ExpiCHO, purified (MabSelect SuRe LX)) VHH: EVQLVESGGGLVQPGGSLRLSCAASGSIRFINDMGWYRQAPGKGLELVAAIGRGGGSTNYADSVKGRFTISRDNAKNTLYLQMNSLRAEDTAVYYCHAEISQLGYAFRDYWGQGTLVTVSS; 0.0815

binder Nanobody-161 IgG1 L103G (VHH, as the VHH of Wm1, with the stated change) VHH: EVQLVESGGGLVQPGGSLRLSCAASGSIRFINDMGWYRQAPGKGLELVAAIGRGGGSTNYADSVKGRFTISRDNAKNTLYLQMNSLRAEDTAVYYCHAEISQGGYAFRDYWGQGTLVTVSS , Kd observed: 0.976
